Assignment: determine reported EC50 for the given binders.
biological target: T1, recombinant human PD-1-his protein (human, UniProt Q15116 25-167); experiment: ELISA (second round of humanization); PD-1-his coated 2 µg/mL, anti-human IgG Fc-HRP
T1 construct: also called hPD-1-his; not shown: his tag
T1 sequence (Q15116 25-167 limits assumed): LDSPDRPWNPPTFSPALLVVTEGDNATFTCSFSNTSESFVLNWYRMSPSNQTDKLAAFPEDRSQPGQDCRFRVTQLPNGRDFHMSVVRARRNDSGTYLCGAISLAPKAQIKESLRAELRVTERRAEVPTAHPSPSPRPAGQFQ
One number for each entry, in nM.

For orientation, consider the following solved cases.
* MHPD1-A-H17 Fc (Fc fusion, not shown: a dimerising Fc or GST; small tags and cut ends, Second round of humanization of MHPD1-A; also called humanized nanobody-Fc fusion protein) VHH: QVQLVESGGGSVQPGGSLRLSCAASGSDPSIYAMGWFRQAPGKGLEFVAGIGWSAATTYYADSVKGRFTISRDNTKNTLYLQMNSLRAEDTAIYYCAADLDHSGFDYWGQGTLVTVSS | 0.64
* MHPD1-A-H19 Fc (Fc fusion, not shown: a dimerising Fc or GST; small tags and cut ends, Second round of humanization; also called humanized nanobody-Fc fusion protein; parent MHPD1-A-H19 Fc) VHH: QVQLVESGGGLVQPGGSLRLSCAASGSDPSIYAMGWFRQAPGKGLEFVAGIGWSAATTYYADSVKGRFTISRDNTKNTLYLQMNSLRAEDTAVYYCAADLDHSGFDYWGQGTLVTVSS | 0.55
* MHPD1-A-H15 Fc (Fc fusion, not shown: a dimerising Fc or GST; small tags and cut ends, Second round of humanization of MHPD1-A; also called humanized nanobody-Fc fusion protein) VHH: QVQLVESGGGSVQPGGSLRLSCAASGSDPSIYAMGWFRQAPGKEHEFVAGIGWSAATTYYADSVKGRFTISRDNTKNTLYLQMNSLRAEDTAIYYCAADLDHSGFDYWGQGTLVTVSS | 2.15
* MHPD1-A-H16 Fc (Fc fusion, not shown: a dimerising Fc or GST; small tags and cut ends, Second round of humanization of MHPD1-A; also called humanized nanobody-Fc fusion protein) VHH: QVQLVESGGGLVQPGGSLRLSCAASGSDPSIYAMGWFRQAPGKEHEFVAGIGWSAATTYYADSVKGRFGISRDNTKNTVALLMNSLRAEDTAVYYCAADLDHSGFDYWGQGTLVTVSS | 2.29

// below: EC50 requested for another binder
Please report the recorded EC50 for MHPD1-A-H18 Fc (Fc fusion, not shown: a dimerising Fc or GST; small tags and cut ends, Second round of humanization of MHPD1-A; also called humanized nanobody-Fc fusion protein) VHH: QVQLVESGGGLVQPGGSLRLSCAASGSDPSIYAMGWFRQAPGKGLEFVAGIGWSAATTYYADSVKGRFTISRDNTKNTLYLQMNSLRAEDTAIYYCAADLDHSGFDYWGQGTLVTVSS . 1.29

Where do these numbers come from? They come from patent US20240309093A1.
